The measured values listed here are drawn from PubChem BioAssay.

- Test Details: growth suppression of beta-catenin knockout HCT116, pilot screen, human colon tumor cells (AID 823);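 also: 0% = wells killed by 20 µM Hyamine and 100% = untreated DMSO cell wells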
- Experimental Conditions: CellTiter-Glo, 60 h, at 10 µM, stronger effect = lower value
Results filed as inconclusive are left out.
Mark yes (1) for viability under 90%, no (0) if at or over.

Molecule | Category Label
COCc1nc(-c2ccc(-c3ccc(OC)cc3)nc2OC)no1 | yes (1)
COc1ccc(-n2c(Cc3cccn3C)nnc2SCC(=O)NC2CCCC2)cc1 | no (0)
O=C(c1ccco1)N1CCN(C(=O)C2Cc3ccccc3CN2S(=O)(=O)c2ccc(F)cc2)CC1 (stereo unspecified) | no (0)
CCc1cc(=O)oc2cc(C)cc(O)c12 | no (0)
CCn1c(C2CC(=O)N(c3ccc(C)c(C)c3)C2)nc2ccccc21 (stereo unspecified) | yes (1)
COc1cc(C2/C(=C(\O)c3cc(C)ccc3C)C(=O)C(=O)N2CCN(C)C)ccc1O (stereo unspecified) | no (0)
CCCC(=O)Nc1nc2ccc(S(=O)(=O)N3CCCCC3)cc2s1 | yes (1)
Cc1cc(C)n2c(SCC#N)nnc2n1 | no (0)
CCOc1ccc(-n2c(SCC(N)=O)nc3c(c2=O)SCC3)cc1 | no (0)
CCOC(=O)N1CCN(C(=O)C(C)(C)Oc2ccc(Cl)cc2)CC1 | no (0)
